# assay.overview: in vitro
# condition.notes: human, hela cells, % viability
Label rule met when viability at 28.5 h, 10 µM < 90%; otherwise rule not met.

### Prompt is_below(viability at 28.5 h, 10 µM, 90%) for Cc1cc(CN(C)Cc2ccc(N3CCCC3)c(F)c2)n[nH]1 ?
### Response rule not met

### Prompt is_below(viability at 28.5 h, 10 µM, 90%) for COc1ccc(OC)c(C(O)CN2CCc3sccc3C2c2cccs2)c1 (centres unmarked) ?
### Response rule not met

### Prompt is_below(viability at 28.5 h, 10 µM, 90%) for Cc1ccc(C)c(NC(=O)CC2C(=O)N(c3ccccc3)C(=S)N2Cc2ccco2)c1 (centres unmarked) ?
### Response rule not met

### Prompt is_below(viability at 28.5 h, 10 µM, 90%) for O=C(c1ccc(-c2cncc(-c3cc4ccccc4[nH]3)c2)cc1)N1CCOCC1 [CBK158419T] ?
### Response rule met
